Listed next: entries and their corresponding cytotoxicity at 70.5 h.
experiment: Human HepG2 cell viability assay in 384 well format; type: toxicity, cell-based; set-up: dose 125 nL, time 70.5 hour; concentration not given beside the values; conditions: HepG2 cells, read-out: Inhibition
MEASURED METRIC: cytotoxicity at 70.5 h (%)

> print(dat)
                                    molecule  recorded.measurement
 1  CC(C)=CCN1CCN(Cc2cc(C)c(O)c(C)c2)CC1CCO (centres undefined)                  9.39
 2  CCC[C@H]1CN(c2nc(CO)cs2)C[C@@H]1NC(=O)C1CCC1                 -5.73
 3  CCN(CC)c1ccc(NS(=O)(=O)c2cnn(C(C)C)c2)cn1                 -6.47
 4       c1c[nH]c(-c2cn(CCSc3cnn[nH]3)nn2)n1                 -11.9
 5  CCc1nc(CN(C)C2CCN(CC(=O)N3CCOCC3)C2)no1 (centres undefined)                 -1.36
 6  Cc1noc(C2CCN(C(C)c3nc(C(C)(C)C)no3)CC2)n1 (centres undefined)                 -14.9
 7        Cc1ccc(NCc2ccc(C#N)cc2)cc1-n1cnnn1                  10.5
 8  Cc1cc2[nH]c(CN3CCCCC3c3cccc(F)c3)cc(=O)n2n1 (centres undefined)                 -5.96
 9     Cc1cccnc1CN1CCN(C(=O)CCn2ccccc2=O)CC1                0.0273
10  CCC1c2ccsc2CCN1C(=O)NCc1cc[nH]n1 (centres undefined)                 -1.24
11  CC(C)NC(=O)N1CCN(C(=O)C2CCOCC2)CC2(CNC(=O)C2)C1 (centres undefined)                   -16
12  CC(NC(=O)CCC(=O)c1cccs1)c1nnc2n1CCCCC2 (centres undefined)                 -15.6
13     Cc1ccc(F)c(S(=O)(=O)NCc2[nH]ncc2Br)c1                   -10
14     Cc1cccc(C(=O)NCc2ccc(OCCN(C)C)cc2)c1C                 -6.51
15  CCOCCn1nc(C)cc1C(=O)N1C[C@@H](C)[C@](O)(C2CC2)C1                 -2.07
16  Cn1cc(C(=O)NCC(Cc2cccc(F)c2)N2CCCCC2=O)nn1 (centres undefined)                 -14.8
17  O=C(Cc1cccc(F)c1F)NC1COc2ccccc2C1=O (centres undefined)                 -10.6
18     Cn1nc(C(=O)N2CCSCC2)cc1NC(=O)c1ccccc1                 -1.31
19            Cc1ncsc1CN(Cc1ccccc1)Cc1ccncc1                  8.23
20    Cc1nc[nH]c1CN(C)Cc1cnn(-c2ccc(F)cc2)c1                  28.9
21  CN(CCC(O)c1ccccc1)Cc1nc(-c2ccccc2)no1 (centres undefined)                 -7.98
22  Cc1ncc(CN(C)C2CCCN(c3cccnn3)C2)s1 (centres undefined)                 -2.85
23  CN(C)C(=O)CN1CCC(c2nnc(Cn3cccn3)n2C2CC2)CC1                   -12
24           CSc1nsc(NC(=O)N2CCc3ccccc3C2)n1                 -4.59
